Target: rhMAO-B (Homo sapiens (Human))
Assay: MAO-Glo assay, MAO-B inhibition
Format: biochemical
Conditions: class symbols, ranges defined in μM
Procedure: The capability of compounds described herein to inhibit MAO was determined using a modified Promega MAO-Glo™ assay kit. […] The light was measured using a luminescence setting on the plate reader. […] The plate luminescence was read. […] The capability of compounds described herein to inhibit MAO was determined using a modified Promega MAO-Glo™ assay. […] The plate luminescence was read. […]
Entries and their IC50 values follow.

Record CCCCc1nc2ccc(C(=O)NC/C(=C/F)CN)cc2o1 [Example 40, 4-methylbenzenesulfonate] . Reported IC50: 10 to 30 µM

More entries:
Record COCCNc1nc2ccc(OC/C(=C\F)CN)cc2o1 [Example 61, 4-methylbenzenesulfonate] . Reported IC50: 1 to 10 µM

Record CC(C)(C)CCCc1nc2ccc(OC/C(=C/F)CN)cc2o1 [Example 51, 4-methylbenzenesulfonate] . Reported IC50: 0.1 to 1 µM

Record NC/C(=C/F)COc1ccc2nc(NCCC3COC3)oc2c1 [Example 65, 4-methylbenzenesulfonate] . Reported IC50: 1 to 10 µM

Record CC1CN(c2nc3ccc(OC/C(=C/F)CN)cc3o2)C1 [Example 33, 4-methylbenzenesulfonate] . Reported IC50: 0.1 to 1 µM

Record COc1ccc(CNc2nc3ccc(OC/C(=C\F)CN)cc3o2)cn1 [Example 76, 4-methylbenzenesulfonate] . Reported IC50: 1 to 10 µM

Record CCCCn1cnc2cc(OC/C(=C/F)CN)ccc21 [Example 89, 4-methylbenzenesulfonate] . Reported IC50: 1 to 10 µM

Record CN(Cc1ccccc1)c1nc2ccc(OC/C(=C/F)CN)cc2o1 [Example 49, 4-methylbenzenesulfonate] . Reported IC50: 0.1 to 1 µM

---

target: rhMAO-A (Homo sapiens (Human)); test: MAO-Glo assay, MAO-A inhibition; format: biochemical; conditions: class symbols, ranges defined in μM
Entries and their IC50 values follow.

Example molecules with recorded IC50:
Record CCCC(C)c1nc2ccc(OC/C(=C/F)CN)cc2o1 (centres unmarked) [Example 43, 4-methylbenzenesulfonate] . Reported IC50: 10 to 30 µM

Record CCCCc1nc2ccc(OC/C(=C\F)CN)cc2o1 [Example 19, 4-methylbenzenesulfonate] . Reported IC50: 1 to 10 µM

Record CCCNc1nc2ccc(OC/C(=C\F)CN)cc2s1 [Example 12, 4-methylbenzenesulfonate] . Reported IC50: 1 to 10 µM

Record CCCCc1nc2ccc(OC/C(=C\F)CN)cc2n1C [Example 73, 4-methylbenzenesulfonate] . Reported IC50: 1 to 10 µM

Next up:
Record CC(C)(C)CNc1nc2ccc(OC/C(=C/F)CN)cc2o1 [Example 59, (4-methylbenzenesulfonate)] . Reported IC50: 1 to 10 µM

---

target: rhMAO-A (Homo sapiens (Human)); assay: MAO-Glo assay, MAO-A inhibition; type: biochemical; details: class symbols, ranges defined in μM
Entries and their IC50 values follow.

Record NC/C(=C/F)COc1ccc2nc(NCc3ccc(N4CCCC4=O)cc3)oc2c1 [Example 57, 4-methylbenzenesulfonate] . Reported IC50: 1 to 10 µM

Record NC/C(=C\F)COc1ccc2nc(NC3CCC(O)C3)oc2c1 (stereo not drawn) . Reported IC50: 1 to 10 µM

Record NC/C(=C\F)COc1ccc2nc(C34CCC(CC3)CC4)oc2c1 [Example 34, 4-methylbenzenesulfonate] . Reported IC50: 10 to 30 µM

Record CCCCc1nc2ccc(C(=O)NC/C(=C/F)CN)cc2o1 [Example 40, 4-methylbenzenesulfonate] . Reported IC50: 10 to 30 µM

Record "NC/C(=C/F)COc1ccc2nc(N3CCC(O)CC3)oc2c1" . Reported IC50: 1 to 10 µM

More entries:
Record "CCCNc1nc2ccc(OC/C(=C/F)CN)cc2s1" . Reported IC50: 10 to 30 µM

Record "CCCNc1nc2ccc(OC/C(=C/F)CN)cc2o1" . Reported IC50: 10 to 30 µM

Record "CCCCc1nc2ccc(C/C(=C/F)CN)cc2o1" . Reported IC50: 10 to 30 µM

Record "CCCCc1nc2ccc(OC/C(=C/F)CN)c(Br)c2s1" . Reported IC50: < 0.1 µM

---

target: rhMAO-A (Homo sapiens (Human), UniProt P21397); test: MAO-Glo assay, MAO-A inhibition; format: biochemical; conditions: class symbols, ranges defined in μM
Sequence (P21397 whole entry): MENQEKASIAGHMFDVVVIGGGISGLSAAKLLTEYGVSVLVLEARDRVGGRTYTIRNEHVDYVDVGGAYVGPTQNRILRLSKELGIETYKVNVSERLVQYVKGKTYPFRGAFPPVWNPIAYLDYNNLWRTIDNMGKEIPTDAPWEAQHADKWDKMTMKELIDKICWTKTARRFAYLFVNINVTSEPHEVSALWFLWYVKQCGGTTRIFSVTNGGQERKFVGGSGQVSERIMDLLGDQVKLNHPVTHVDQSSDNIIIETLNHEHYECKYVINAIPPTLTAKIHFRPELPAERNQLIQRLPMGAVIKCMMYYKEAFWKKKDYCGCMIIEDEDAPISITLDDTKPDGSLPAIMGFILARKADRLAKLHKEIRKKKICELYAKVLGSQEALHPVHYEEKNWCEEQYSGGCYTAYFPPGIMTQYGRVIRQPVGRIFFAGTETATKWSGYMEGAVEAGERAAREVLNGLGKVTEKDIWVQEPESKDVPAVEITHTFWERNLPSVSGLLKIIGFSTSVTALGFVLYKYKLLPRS
Entries and their IC50 values follow.

Record NC/C(=C\F)COc1ccc2nc(CCCCc3ccccc3)oc2c1 [Example 35, 4-methylbenzenesulfonate] . Reported IC50: 10 to 30 µM

Record CC(C)(Nc1nc2ccc(OC/C(=C/F)CN)cc2o1)c1ccccc1 [Example 48, 4-methylbenzenesulfonate] . Reported IC50: 10 to 30 µM

Record CC1(C)CCC(c2nc3ccc(OC/C(=C/F)CN)cc3o2)CC1 [Example 36, 4-methylbenzenesulfonate] . Reported IC50: 10 to 30 µM

Record NC/C(=C\F)COc1ccc2nc(NCc3cccnc3)oc2c1 [Example 26, 4-methylbenzenesulfonate] . Reported IC50: 10 to 30 µM

---

target: rhMAO-B (Homo sapiens (Human)); test: MAO-Glo assay, MAO-B inhibition; format: biochemical; details: class symbols, ranges defined in μM
Entries and their IC50 values follow.

Record "CCCCc1nc2ccc(CC(=CF)CN)cc2o1" . Reported IC50: 0.1 to 1 µM

---

target: UniProt:P27338; assay: MAO-Glo assay, MAO-B inhibition; assay type: biochemical; conditions: number printed in cell
assay-readout: IC50 (nM)
# output: bare number, implied unit nM

Record COc1ccc(CNc2nc3ccc(OC/C(=C/F)CN)cc3o2)cc1 [Example 24, 4-methylbenzenesulfonate] . Reported IC50: 637

---

biological target: rhMAO-B (Homo sapiens (Human), UniProt P27338); assay: MAO-Glo assay, MAO-B inhibition; type: biochemical; conditions: class symbols, ranges defined in μM
Sequence (P27338 whole entry): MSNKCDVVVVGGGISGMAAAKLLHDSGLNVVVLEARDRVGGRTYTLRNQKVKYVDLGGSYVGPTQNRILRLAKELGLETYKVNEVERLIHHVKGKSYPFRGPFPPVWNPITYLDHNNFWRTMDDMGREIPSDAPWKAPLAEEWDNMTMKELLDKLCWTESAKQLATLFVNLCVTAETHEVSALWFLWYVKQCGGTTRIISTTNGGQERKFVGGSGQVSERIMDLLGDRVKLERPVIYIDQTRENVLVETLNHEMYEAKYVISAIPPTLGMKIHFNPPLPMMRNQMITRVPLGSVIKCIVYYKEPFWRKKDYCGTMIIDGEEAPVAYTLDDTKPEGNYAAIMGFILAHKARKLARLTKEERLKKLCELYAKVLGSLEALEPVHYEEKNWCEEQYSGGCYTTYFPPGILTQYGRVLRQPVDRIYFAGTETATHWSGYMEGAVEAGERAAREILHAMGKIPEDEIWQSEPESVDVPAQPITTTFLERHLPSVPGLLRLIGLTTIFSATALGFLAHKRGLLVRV
assay-readout: IC50

Example compounds with recorded IC50:
Record CCCNc1nc2ccc(OC/C(=C\F)CN)cc2s1 [Example 12, 4-methylbenzenesulfonate] . Reported IC50: 1 to 10 µM

Record NC/C(=C\F)COc1ccc2nc(NCc3ccc(C(F)(F)F)nc3)oc2c1 [Example 84, 4-methylbenzenesulfonate] . Reported IC50: 1 to 10 µM

Record NC/C(=C\F)COc1ccc2nc(NCc3ccccc3)oc2c1 [Example 21, 4-methylbenzenesulfonate] . Reported IC50: 0.1 to 1 µM

More entries:
Record "CCCCc1nc2ccc(COC/C(=C/F)CN)cc2o1" . Reported IC50: < 0.1 µM

Record CC(C)(Nc1nc2ccc(OC/C(=C/F)CN)cc2o1)c1ccccc1 [Example 48, 4-methylbenzenesulfonate] . Reported IC50: 10 to 30 µM

Record NC/C(=C\F)COc1ccc2nc(NCCc3ccccc3)oc2c1 [Example 45, 4-methylbenzenesulfonate] . Reported IC50: 0.1 to 1 µM

Record "NC/C(=C\F)COc1ccc2nc(NCCO)oc2c1" . Reported IC50: 10 to 30 µM

Record COc1ncccc1CNc1nc2ccc(OC/C(=C\F)CN)cc2o1 [Example 75, 4-methylbenzenesulfonate] . Reported IC50: 0.1 to 1 µM

---

molecular target: rhMAO-A (Homo sapiens (Human), UniProt P21397); assay: MAO-Glo assay, MAO-A inhibition; type: biochemical; conditions: bound printed in cell
pIC50: −log10 of the molar value.
assay-readout: pIC50

Example molecules with recorded pIC50:
pIC50 on rhMAO-A (Homo sapiens (Human), UniProt P21397) for Cc1ncccc1CNc1nc2ccc(OC/C(=C\F)CN)cc2o1 [Example 69, 4-methylbenzenesulfonate] is < 4.30

pIC50 on rhMAO-A (Homo sapiens (Human), UniProt P21397) for NC/C(=C/F)COc1ccc2nc(NC3CCC(O)CC3)oc2c1 (stereo not drawn) [Example 78] is < 4.30

pIC50 on rhMAO-A (Homo sapiens (Human), UniProt P21397) for NC/C(=C\F)COc1ccc2nc(N3CCS(=O)(=O)CC3)oc2c1 [Example 90, 4-methylbenzenesulfonate] is < 4.30

pIC50 on rhMAO-A (Homo sapiens (Human), UniProt P21397) for CCCCc1nc2ccc(OC/C(=C/F)CN)cc2[nH]1 [Example 13, 4-methylbenzenesulfonate] is < 4.30

pIC50 on rhMAO-A (Homo sapiens (Human), UniProt P21397) for Cc1ccc(CNc2nc3ccc(OC/C(=C/F)CN)cc3o2)cn1 [Example 55, 4-methylbenzenesulfonate] is < 4.46

Next up:
pIC50 on rhMAO-A (Homo sapiens (Human), UniProt P21397) for CNC(=O)C(Cc1ccccc1)Nc1nc2ccc(OC/C(=C\F)CN)cc2o1 (stereo not drawn) [Example 56, 4-methylbenzenesulfonate] is < 4.30

---

biological target: rhMAO-A (Homo sapiens (Human)); assay: MAO-Glo assay, MAO-A inhibition; assay type: biochemical; conditions: class symbols, ranges defined in μM
Entries and their IC50 values follow.

IC50 on rhMAO-A (Homo sapiens (Human)) for "C=C(CN)c1ccc2nc(CCCC)oc2c1" is < 0.1 µM

IC50 on rhMAO-A (Homo sapiens (Human)) for "CCCNc1nc2ccc(OC/C(=C/F)CN)c(F)c2o1" is 10 to 30 µM

IC50 on rhMAO-A (Homo sapiens (Human)) for "CCCCc1nc2ccc(COC/C(=C/F)CN)cc2o1" is 10 to 30 µM

IC50 on rhMAO-A (Homo sapiens (Human)) for COc1ccc(CNc2nc3ccc(OC/C(=C\F)CN)cc3o2)cn1 [Example 76, 4-methylbenzenesulfonate] is 1 to 10 µM

More entries:
IC50 on rhMAO-A (Homo sapiens (Human)) for "NC/C(=C\F)COc1ccc2nc(NCCCO)sc2c1" is 1 to 10 µM

IC50 on rhMAO-A (Homo sapiens (Human)) for COc1cc(CNc2nc3ccc(OC/C(=C\F)CN)cc3o2)ccn1 [Example 74, 4-methylbenzenesulfonate] is 1 to 10 µM

IC50 on rhMAO-A (Homo sapiens (Human)) for "CCCCc1nc2ccc(CC(=CF)CN)cc2o1" is 1 to 10 µM
